Recorded MIC by entry
Test system: Candida albicans
protocol.details: Antimicrobial activity against micafungin-resistant Candida albicans ATCC 76615R incubated for 24 hrs by two fold serial dilution method
Type: functional
quantity: MIC (µg/mL)

>>> df
                                   compound  display_unit  result_value
0  O=C(c1ccc([N+](=O)[O-])cc1)N1CCN(CC(=O)N2CCCC23Cc2ccccc2NC3=O)CC1 (stereo not drawn)         µg/mL           128
1  O=C(c1cccc([N+](=O)[O-])c1)N1CCN(CC(=O)N2CCCC23Cc2ccccc2NC3=O)CC1 (stereo not drawn)         µg/mL            64
2  O=C(c1cc(Cl)ccc1Cl)N1CCN(CC(=O)N2CCCC23Cc2ccccc2NC3=O)CC1 (stereo not drawn)         µg/mL            32

====

Recorded MIC by entry
Tested on: Aspergillus flavus
protocol.details: Antimicrobial activity against Aspergillus flavus ATCC 16870 incubated for 24 hrs in presence of fluconazole by checkerboard method
Format: functional
quantity: MIC

                                   compound  quantity  result_value
0  O=C(c1cc([N+](=O)[O-])ccc1Cl)N1CCN(CC(=O)N2CCCC23Cc2ccccc2NC3=O)CC1 (centres undefined)       MIC       4 µg/mL
1  O=C(c1cccc(F)c1)N1CCN(CC(=O)N2CCCC23Cc2ccccc2NC3=O)CC1 (centres undefined)       MIC       2 µg/mL
2  O=C(c1ccc([N+](=O)[O-])cc1)N1CCN(CC(=O)N2CCCC23Cc2ccccc2NC3=O)CC1 (centres undefined)       MIC       2 µg/mL
3  O=C(c1c(F)cccc1F)N1CCN(CC(=O)N2CCCC23Cc2ccccc2NC3=O)CC1 (centres undefined)       MIC       4 µg/mL

====

Test system: Aspergillus fumigatus
protocol.details: Antimicrobial activity against Aspergillus fumigatus GIMCC 3.19 incubated for 24 hrs by two fold serial dilution method
Type: functional
quantity: MIC (µg/mL)

In [3]: df
Out[3]:
                                   compound  display_unit  result_value
0  Cc1ccc(C(=O)N2CCN(CC(=O)N3CCCC34Cc3ccccc3NC4=O)CC2)cc1 (centres undefined)         µg/mL            32
1  COc1cccc(C(=O)N2CCN(CC(=O)N3CCCC34Cc3ccccc3NC4=O)CC2)c1 (centres undefined)         µg/mL            32
2  O=C(c1ccccc1I)N1CCN(CC(=O)N2CCCC23Cc2ccccc2NC3=O)CC1 (centres undefined)         µg/mL            16
3  O=C(c1cc(Cl)ccc1Cl)N1CCN(CC(=O)N2CCCC23Cc2ccccc2NC3=O)CC1 (centres undefined)         µg/mL             8
4  O=C(c1cccc(F)c1)N1CCN(CC(=O)N2CCCC23Cc2ccccc2NC3=O)CC1 (centres undefined)         µg/mL             1
5  O=C(c1c(F)cccc1F)N1CCN(CC(=O)N2CCCC23Cc2ccccc2NC3=O)CC1 (centres undefined)         µg/mL           0.5
6  Cc1cccc(C(=O)N2CCN(CC(=O)N3CCCC34Cc3ccccc3NC4=O)CC2)c1 (centres undefined)         µg/mL            32
7        OC(Cn1cncn1)(Cn1cncn1)c1ccc(F)cc1F         µg/mL             4
8  CCc1ccc(C(=O)N2CCN(CC(=O)N3CCCC34Cc3ccccc3NC4=O)CC2)cc1 (centres undefined)         µg/mL            64

====

Tested on: Aspergillus fumigatus
protocol.details: Antimicrobial activity against Aspergillus fumigatus GIMCC 3.19 assessed as inhibition of cell wall synthesis in presence of sorbitol
Type: functional
Recorded MIC by entry
quantity: MIC

In [3]: df
Out[3]:
                                   molecule  result_value
0  O=C(c1cc(Cl)ccc1Cl)N1CCN(CC(=O)N2CCCC23Cc2ccccc2NC3=O)CC1 (stereo not given)      64 µg/mL
1  O=C(c1cc([N+](=O)[O-])ccc1Cl)N1CCN(CC(=O)N2CCCC23Cc2ccccc2NC3=O)CC1 (stereo not given)     128 µg/mL
2  O=C(c1ccc(F)cc1)N1CCN(CC(=O)N2CCCC23Cc2ccccc2NC3=O)CC1 (stereo not given)     256 µg/mL
3  O=C(c1c(F)cccc1F)N1CCN(CC(=O)N2CCCC23Cc2ccccc2NC3=O)CC1 (stereo not given)      64 µg/mL
4  O=C(c1ccc([N+](=O)[O-])cc1)N1CCN(CC(=O)N2CCCC23Cc2ccccc2NC3=O)CC1 (stereo not given)      64 µg/mL

====

Recorded MIC by entry
Tested on: Candida albicans
protocol.details: Antimicrobial activity against Candida albicans ATCC 76615 incubated for 24 hrs in presence of polyoxin B by checkerboard method
Type: functional
quantity: MIC (µg/mL)

In [3]: df
Out[3]:
                                   molecule  result_value
0  O=C(c1c(F)cccc1F)N1CCN(CC(=O)N2CCCC23Cc2ccccc2NC3=O)CC1 (centres undefined)             1
1  O=C(c1ccc([N+](=O)[O-])cc1)N1CCN(CC(=O)N2CCCC23Cc2ccccc2NC3=O)CC1 (centres undefined)             1
2  O=C(c1cc([N+](=O)[O-])ccc1Cl)N1CCN(CC(=O)N2CCCC23Cc2ccccc2NC3=O)CC1 (centres undefined)             2
3  O=C(c1cccc(F)c1)N1CCN(CC(=O)N2CCCC23Cc2ccccc2NC3=O)CC1 (centres undefined)           0.5

====

Tested on: Candida tropicalis
protocol.details: Inhibition of Candida tropicalis ATCC 750 chitin synthase using UDP-GlcNAc as substrate at 300 ug/ml by TMB based microplate analyzer relative to control
condition.summary: dose 300.0 µg/ml
quantity: inhibition

>>> print(df.to_string())
                                   molecule  result_value
0  O=C(c1cccc(Br)c1)N1CCN(CC(=O)N2CCCC23Cc2ccccc2NC3=O)CC1 (stereo not given)         58.8%
1  O=C(c1cc(Cl)ccc1Cl)N1CCN(CC(=O)N2CCCC23Cc2ccccc2NC3=O)CC1 (stereo not given)         67.6%
2  COc1cccc(C(=O)N2CCN(CC(=O)N3CCCC34Cc3ccccc3NC4=O)CC2)c1 (stereo not given)         50.7%
3  O=C(c1ccccc1)N1CCN(CC(=O)N2CCCC23Cc2ccccc2NC3=O)CC1 (stereo not given)           47%
4  O=C(c1cccc(F)c1)N1CCN(CC(=O)N2CCCC23Cc2ccccc2NC3=O)CC1 (stereo not given)         76.8%

====

Recorded MIC by entry
Test system: Aspergillus fumigatus
protocol.details: Antimicrobial activity against Aspergillus fumigatus GIMCC 3.19 incubated for 24 hrs in presence of fluconazole by checkerboard method
Format: functional
quantity: MIC (µg/mL)

                                   compound  result_value
0  O=C(c1c(F)cccc1F)N1CCN(CC(=O)N2CCCC23Cc2ccccc2NC3=O)CC1 (centres undefined)             2
1  O=C(c1cccc(F)c1)N1CCN(CC(=O)N2CCCC23Cc2ccccc2NC3=O)CC1 (centres undefined)             1
2  O=C(c1ccc([N+](=O)[O-])cc1)N1CCN(CC(=O)N2CCCC23Cc2ccccc2NC3=O)CC1 (centres undefined)             2
3  O=C(c1cc([N+](=O)[O-])ccc1Cl)N1CCN(CC(=O)N2CCCC23Cc2ccccc2NC3=O)CC1 (centres undefined)             1

====

Test system: Candida tropicalis
protocol.details: Inhibition of Candida tropicalis ATCC 750 chitin synthase using UDP-GlcNAc as substrate at 300 ug/ml by TMB based microplate analyzer relative to control
condition.summary: dose 300.0 µg/ml
quantity: inhibition

                                    compound    quantity  result_value
 0  O=C(c1ccc([N+](=O)[O-])cc1)N1CCN(CC(=O)N2CCCC23Cc2ccccc2NC3=O)CC1 (stereo unspecified)  inhibition         80.2%
 1  O=C(c1c(F)cccc1F)N1CCN(CC(=O)N2CCCC23Cc2ccccc2NC3=O)CC1 (stereo unspecified)  inhibition         83.4%
 2  O=C(c1cccc([N+](=O)[O-])c1)N1CCN(CC(=O)N2CCCC23Cc2ccccc2NC3=O)CC1 (stereo unspecified)  inhibition         81.2%
 3  O=C(c1ccccc1Cl)N1CCN(CC(=O)N2CCCC23Cc2ccccc2NC3=O)CC1 (stereo unspecified)  inhibition         61.4%
 4  Cc1cccc(C(=O)N2CCN(CC(=O)N3CCCC34Cc3ccccc3NC4=O)CC2)c1 (stereo unspecified)  inhibition         49.4%
 5  O=C(c1cc([N+](=O)[O-])ccc1Cl)N1CCN(CC(=O)N2CCCC23Cc2ccccc2NC3=O)CC1 (stereo unspecified)  inhibition         82.9%
 6  O=C(c1ccccc1I)N1CCN(CC(=O)N2CCCC23Cc2ccccc2NC3=O)CC1 (stereo unspecified)  inhibition         54.2%
 7  O=C(c1ccc(F)cc1)N1CCN(CC(=O)N2CCCC23Cc2ccccc2NC3=O)CC1 (stereo unspecified)  inhibition         76.7%
 8  Cc1ccc(C(=O)N2CCN(CC(=O)N3CCCC34Cc3ccccc3NC4=O)CC2)cc1 (stereo unspecified)  inhibition         52.3%
 9  CCc1ccc(C(=O)N2CCN(CC(=O)N3CCCC34Cc3ccccc3NC4=O)CC2)cc1 (stereo unspecified)  inhibition         52.8%
10  NC(=O)OC[C@H](O)[C@@H](O)[C@H](N)C(=O)N[C@H](C(=O)O)[C@H]1O[C@@H](n2cc(CO)c(=O)[nH]c2=O)[C@H](O)[C@@H]1O  inhibition         86.1%
